These measurements were taken from ChEMBL document CHEMBL5346893.

# target_entity: [Pyruvate dehydrogenase (acetyl-transferring)] kinase isozyme 4, mitochondrial (Homo sapiens)
# assay_summary: Inhibition of PDK4 (unknown origin) at 1.5 uM incubated for 30 mins followed by substrate addition measured after 60 mins in presence of ATP by ADP-Glo luminescent assay relative to control
# measurement_context: time 90.0 min
readout: inhibition (%)
Express your answer in %, writing the number without its unit.

Some solved entries appear below for comparison.
>  <given_smiles>
Cn1cc(-c2nnc(N)nc2-c2c[nH]c3ccc(F)cc23)c2cc(Br)cnc21

>  <quantitative_result>
0

$$$$
>  <given_smiles>
Cn1cc(-c2nc(N)nnc2-c2c[nH]c3ccc(F)cc23)c2cc(Br)cnc21

>  <quantitative_result>
60

$$$$
>  <given_smiles>
COc1ccc2[nH]cc(-c3nnc(N)nc3-c3cn(C)c4ncc(Br)cc34)c2c1

>  <quantitative_result>
0

$$$$
>  <given_smiles>
Cn1cc(-c2nnc(N)nc2-c2c[nH]c3ccc(Br)cc23)c2cc(Br)cnc21

>  <quantitative_result>
60

$$$$

Inquiry: Kindly indicate its recorded inhibition. Item: `Cn1cc(-c2nc(N)nnc2-c2c[nH]c3ccc(Br)cc23)c2cc(Br)cnc21`
Reply text: 0
